Tested on: HepG2 cell line
assay explanation: In vitro toxicity study on HepG2 cell line (resazurin, viability and IC50)
Type: cell-based, human
settings: HepG2 cells, 25 μM lipid, 48 h post-treatment, resazurin, relative to ethanol vehicle controls
Viability (%) at different lipid concentrations, mean values by entry
observation type: Viability (%) at different lipid concentrations, mean

| compound | reading |
| --- | --- |
| CCCCCCCC/C=C\CCCCCCCCOC(=O)C(C)(C)CC(OCCCCCCCC/C=C\CCCCCCCC)O[Si](C)(C)OCCCCCCN(CCCCO)CCCCO (stereo not drawn) | 108.7 |
| CCCCC/C=C\C/C=C\CCCCCCCCOC(CCCCCCC/C=C\C/C=C\CCCCC)O[Si](C)(C)OCCCCCCN(C)CCCCO (stereo not drawn) | 98.4 |
| CCCCCCCC/C=C\CCCCCCCC(OCCCCCCCCCCCCCCC(C)C)O[Si](C)(C)OCCCCCCN(CCO)CCO (stereo not drawn) | 98.5 |

* * *

Tested on: HepG2 cell line
assay explanation: In vitro toxicity study on HepG2 cell line (resazurin, viability and IC50)
Assay type: cell-based, human
settings: HepG2 cells, 400 μM lipid, 48 h post-treatment, resazurin, relative to ethanol vehicle controls
observation type: Viability (%) at different lipid concentrations, mean

| compound | reading |
| --- | --- |
| CCCCCCCC/C=C\CCCCCCCCOC(CC[C@@H](C)C1CCC2C3CCC4C[C@H](OC)CC[C@]4(C)C3CC[C@@]21C)O[Si](C)(C)OCCCCCCN(CCO)CCO (stereo partly drawn) | 102.9 |
| CCCCCCCC/C=C\CCCCCCCC(OCCC(C)CCCC(C)CCCC(C)CCCC(C)C)O[Si](C)(C)OCCCCCCN(CCO)CCO (stereo not drawn) | 102.4 |
| CCCCCCCC/C=C\CCCCCCCCOC(=O)C(C)(C)CC(OCCCCCCCC/C=C\CCCCCCCC)O[Si](C)(C)OCCCCCCN(CCO)CCN(CCO)CCCCCCO[Si](C)(C)OC(CC(C)(C)C(=O)OCCCCCCCC/C=C\CCCCCCCC)OCCCCCCCC/C=C\CCCCCCCC (stereo not drawn) | 67.88 |
| CCCCC/C=C\C/C=C\CCCCCCCCO[Si](C)(C)OC(CCCCCCC/C=C\C/C=C\CCCCC)OCCCCCCN(CCO)CCO (stereo not drawn) | 102.0 |
| C#CCN(C)CCCCCCO[Si](C)(C)OC(CCCCCCC/C=C\C/C=C\CCCCC)OCCCCCCCC/C=C\C/C=C\CCCCC (stereo not drawn) | 3.0 |
| CCCCC/C=C\C/C=C\CCCCCCCCOC(CCCCCCC/C=C\C/C=C\CCCCC)O[Si](C)(C)OCCCCCCN(CCO)CCN(CCO)CCCCCCO[Si](C)(C)OC(CCCCCCC/C=C\C/C=C\CCCCC)OCCCCCCCC/C=C\C/C=C\CCCCC (stereo not drawn) | 39.19 |
| CCCCCCCC/C=C\CCCCCCCCOC(=O)C(C)(C)CCC(OCCCCCCCC/C=C\CCCCCCCC)O[Si](C)(C)OCCCCCCN(CCO)CCO (stereo not drawn) | 104.0 |
| CCCCCCCC/C=C\CCCCCCCCOC(=O)C(C)(C)CC(OCCCCCCCC/C=C\CCCCCCCC)O[Si](C)(C)OCCCCCCN1CCOCC1 (stereo not drawn) | 103.2 |
| CCCCC/C=C\C/C=C\CCCCCCCCOC(CC[C@@H](C)C1CCC2C3CCC4C[C@H](OC)CC[C@]4(C)C3CC[C@@]21C)O[Si](C)(C)OCCCCCCN(CCO)CCO (stereo partly drawn) | 5.3 |
| CCCCCCCC/C=C\CCCCCCCCOC(=O)C(C)(C)CC(OCCCCCCCC/C=C\CCCCCCCC)O[Si](C)(C)OCCCCCCN(CCCO)CCCO (stereo not drawn) | 36.6 |
| CCCCCCCC/C=C\CCCCCCCCOC(=O)C(C)(C)CC(OCCCCCCCC/C=C\CCCCCCCC)O[Si](C)(C)OCCCCCCN(CCO)CCO (stereo not drawn) | 82.2 |
| CCCCC/C=C\C/C=C\CCCCCCCCOC(CCCCCCC/C=C\C/C=C\CCCCC)O[Si](C)(C)OCCCCCCN1CCN(CCO)CC1 (stereo not drawn) | 40.3 |

* * *

assay explanation: LNP size, PDI and zeta potential by Dynamic Light Scattering (Method A)
Type: physicochemical
settings: LNP formulated with the lipid, DLS
observation type: Zeta potential (mV)

| molecule | display unit | reading |
| --- | --- | --- |
| CCCCCCCC/C=C\CCCCCCCCOC(CCCCCCCCCCCCCCC)O[Si](C)(C)OCCCCCCN(CCO)CCO (stereo not shown) | mV | −8.54 |
| CCCCCCCC/C=C\CCCCCCCCOC(=O)C(C)(C)CC(OCCCCCCCC/C=C\CCCCCCCC)O[Si](C)(C)OCCCCCCN(C)CC(O)CO (stereo not shown) | mV | −12.56 |
| CCCCCCCC/C=C\CCCCCCCC(OCC(CCCCCCCC)SCCCCC)O[Si](C)(C)OCCCCCCN(CCO)CCO (stereo not shown) | mV | −14.24 |
| CCCCCCCC/C=C\CCCCCCCCOC(=O)C(C)(C)CCC(OCCCCCCCC/C=C\CCCCCCCC)O[Si](C)(C)OCCCCCCN1CCOCC1 (stereo not shown) | mV | −20.80 |

* * *

Test system: HepG2 cell line
assay explanation: In vitro toxicity study on HepG2 cell line (resazurin, viability and IC50)
Format: cell-based, human
settings: HepG2 cells, 800 μM lipid, 48 h post-treatment, resazurin, relative to ethanol vehicle controls
Experimental: The synthesized lipids were tested in term of in vitro transfection efficacy and toxicity on HeLa cells. In order to perform the mentioned biological tests, appropriate LNPs had to be formulated from the synthesized lipids. The formulation technique was different in Method A and B. The particle size, polydispersity index (PDI) and zeta potential of resulting LNPs were determined by means of Dynamic Light Scattering technique (DLS). […]
observation type: Viability (%) at different lipid concentrations, mean

| molecule | reading |
| --- | --- |
| CCCCC/C=C\C/C=C\CCCCCCCCOC(CCCCCCC/C=C\C/C=C\CCCCC)O[Si](C)(C)OCCCCCCN(C)CCCCO (stereo not shown) | 35.2 |
| CCCCC/C=C\C/C=C\CCCCCCCCOC(CCCCCCC/C=C\C/C=C\CCCCC)O[Si](C)(C)OCCCCCCN1CCN(CCO)CC1 (stereo not shown) | 3.8 |
| CCCCC/C=C\C/C=C\CCCCCCCCO[Si](C)(C)OC(CCCCCCC/C=C\C/C=C\CCCCC)OCCCCCCN(CCO)CCO (stereo not shown) | 89.0 |
| CCCCC/C=C\C/C=C\CCCCCCCC(OCCCCCCCCCCCCCCCC)O[Si](C)(C)OCCCCCCN(CCO)CCO (stereo not shown) | 94.0 |

* * *

Test system: HeLa cells
assay explanation: Cell viability assessment with resazurin assay (Method A)
Type: cell-based
settings: human
observation type: Cell Viability % (Average metabolic rate over all doses, Resazurin) (%)

| compound | display unit | reading |
| --- | --- | --- |
| CCCCCCCC/C=C\CCCCCCCCOC(=O)C(C)(C)CC(OCCCCCCCC/C=C\CCCCCCCC)O[Si](C)(C)OCCCCCCN(CCCO)CCCO (stereo not drawn) [Example 88] | % | 91 |
| CCCCC/C=C\C/C=C\CCCCCCCCOC(CCCCCCCCCCCCCCC)O[Si](C)(C)OCCCCCCN(CCO)CCO (stereo not drawn) [Example 43] | % | 98 |
| CCCCCCCC/C=C\CCCCCCCCOC(=O)C(C)(C)CCC(OCCCCCCCC/C=C\CCCCCCCC)O[Si](C)(C)OCCCCCCN1CCOCC1 (stereo not drawn) [Example 95] | % | 106 |

* * *

Recorded measurements of Viability (%) at different lipid concentrations, mean, one per entry
Test system: HepG2 cell line
assay explanation: In vitro toxicity study on HepG2 cell line (resazurin, viability and IC50)
Format: cell-based, human
settings: HepG2 cells, 200 μM lipid, 48 h post-treatment, resazurin, relative to ethanol vehicle controls
Experimental: The synthesized lipids were tested in term of in vitro transfection efficacy and toxicity on HeLa cells. In order to perform the mentioned biological tests, appropriate LNPs had to be formulated from the synthesized lipids. The formulation technique was different in Method A and B. The particle size, polydispersity index (PDI) and zeta potential of resulting LNPs were determined by means of Dynamic Light Scattering technique (DLS). […]
observation type: Viability (%) at different lipid concentrations, mean

| molecule | reading |
| --- | --- |
| CCCCCCCC/C=C\CCCCCCCCOC(=O)C(C)(C)CC(OCCCCCCCC/C=C\CCCCCCCC)O[Si](C)(C)OCCCCCCN1CCCCC1CO (stereo not shown) | 106.6 |
| CCCCCCCC/C=C\CCCCCCCCOC(=O)C(C)(C)CC(OCCCCCCCC/C=C\CCCCCCCC)O[Si](C)(C)OCCCCCCN1CCOCC1 (stereo not shown) | 101.9 |
| CCCCCCCC/C=C\CCCCCCCC(OCCCCCCCCCCCC1CCCCC1)O[Si](C)(C)OCCCCCCN(CCO)CCO (stereo not shown) | 117.3 |
| CCCCCCCCC(CCCCCC)C(=O)OCCCCCCN(CCCCO)CCCCCCOC(=O)C(CCCCCC)CCCCCCCC (stereo not shown) [ALC-0315, reference compound] | 58.9 |
| CCCCC/C=C\C/C=C\CCCCCCCCOC(CCCCCCC/C=C\C/C=C\CCCCC)O[Si](C)(C)OCCCCCCN(C)Cc1cn(C2[C@H](O)O[C@H](CO)[C@@H](O)[C@@H]2O)nn1 (stereo partly shown) | 103.6 |
| CCCCCCCC/C=C\CCCCCCCCOC(CC[C@@H](C)C1CCC2C3CCC4C[C@H](OC)CC[C@]4(C)C3CC[C@@]21C)O[Si](C)(C)OCCCCCCN(CCO)CCO (stereo partly shown) | 114.9 |
| CCCCC/C=C\C/C=C\CCCCCCCCOC(CCCCCCC/C=C\C/C=C\CCCCC)O[Si](C)(C)OCCCCCCN1CCN(CCO)CC1 (stereo not shown) | 101.6 |
| CCCCC/C=C\C/C=C\CCCCCCCCOC(CCCCCN(C)CC(O)CO)O[Si](C)(C)OCCCCCCCC/C=C\C/C=C\CCCCC (stereo not shown) | 95.5 |
| CCCCC/C=C\C/C=C\CCCCCCCCOC(CCCCCCC/C=C\C/C=C\CCCCC)O[Si](C)(C)OCCCCCCN1CCCC1CO (stereo not shown) | 91.6 |
| CCCCCCCC/C=C\CCCCCCCCOC(CCCCCCCCCCCCCCC)O[Si](C)(C)OCCCCCCN(CCO)CCO (stereo not shown) | 109.5 |

Reference for the values: patent US20260109721A1
